- Study system: 14-3-3γ (Homo sapiens, UniProt P61981)
- Construct: made in house; host or cells: E. coli NiCo21 (DE3)
- Sequence (P61981 1-247): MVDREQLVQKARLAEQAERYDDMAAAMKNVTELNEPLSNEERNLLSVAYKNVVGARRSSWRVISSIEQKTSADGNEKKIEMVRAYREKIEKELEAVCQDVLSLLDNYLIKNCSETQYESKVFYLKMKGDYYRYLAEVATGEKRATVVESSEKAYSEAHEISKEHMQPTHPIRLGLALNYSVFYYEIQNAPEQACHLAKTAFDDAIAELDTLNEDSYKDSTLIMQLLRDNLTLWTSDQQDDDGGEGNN
- Measurement description: Fluorescence anisotropy (FA) binary binding study: 14-3-3 titrated to fluorescein-labelled peptide
- Applied conditions: Table S2; ΔG minus ΔG of previous peptide, FA; replicate 1
Where a SMILES comes first, the peptide text is derived from it. [ ]: non-standard residue; d: D form. The star is where a group is joined. ξ: configuration not given here. FITC = O=C1OC2(c3ccc(O)cc3Oc3cc(O)ccc32)c2ccc(NC(=S)*)cc21; Phe(4-NO2) = N[C@@H](Cc1ccc([N+](=O)[O-])cc1)C(=O)O; ξAla(4-thiazolyl) = NC(Cc1cscn1)C(=O)O; pS = N[C@@H](COP(=O)(O)O)C(=O)O; β3hS = N[C@@H](CO)CC(=O)O; Nva = CCC[C@H](N)C(=O)O; βAla = NCCC(=O)O
Experimental endpoint: ΔΔG (to previous)

1. C[C@H](NC(=O)[C@H](CCCCN)NC(=O)[C@H](Cc1ccc([N+](=O)[O-])cc1)NC(=O)CCNC(=O)C[C@H](CO)NC(=O)[C@H](Cc1ccc([N+](=O)[O-])cc1)NC(=O)[C@@H](N)COP(=O)(O)O)C(=O)N[C@@H](CCCCNC(=S)Nc1ccc2c(c1)C(=O)OC21c2ccc(O)cc2Oc2cc(O)ccc21)C(N)=O [2d] (H-[pS][Phe(4-NO2)][β3hS][βAla][Phe(4-NO2)]KAK(FITC)-NH2) :: 2,19 kcal/mol
2. C[C@H](NC(=O)[C@H](CCCCN)NC(=O)[C@H](Cc1ccc([N+](=O)[O-])cc1)NC(=O)CCNC(=O)C[C@H](CO)NC(=O)[C@H](Cc1ccc([N+](=O)[O-])cc1)NC(=O)[C@H](COP(=O)(O)O)NC(=O)C(N)Cc1cscn1)C(=O)N[C@@H](CCCCNC(=S)Nc1ccc2c(c1)C(=O)OC21c2ccc(O)cc2Oc2cc(O)ccc21)C(N)=O (stereo partly drawn) [2c] (H-[ξAla(4-thiazolyl)][pS][Phe(4-NO2)][β3hS][βAla][Phe(4-NO2)]KAK(FITC)-NH2) :: -0,40 kcal/mol
3. CCC[C@H](N)C(=O)N[C@@H](Cc1ccc([N+](=O)[O-])cc1)C(=O)NC(Cc1cscn1)C(=O)N[C@@H](COP(=O)(O)O)C(=O)N[C@@H](Cc1ccc([N+](=O)[O-])cc1)C(=O)N[C@@H](CO)CC(=O)NCCC(=O)N[C@@H](Cc1ccc([N+](=O)[O-])cc1)C(=O)N[C@@H](CCCCN)C(=O)N[C@@H](C)C(=O)N[C@@H](CCCCNC(=S)Nc1ccc2c(c1)C(=O)OC21c2ccc(O)cc2Oc2cc(O)ccc21)C(N)=O (stereo partly drawn) [2a] (H-[Nva][Phe(4-NO2)][ξAla(4-thiazolyl)][pS][Phe(4-NO2)][β3hS][βAla][Phe(4-NO2)]KAK(FITC)-NH2) :: 0,32 kcal/mol

Q: Tell me reported ΔΔG (to previous) for C[C@H](NC(=O)[C@H](CCCCN)NC(=O)[C@H](Cc1ccc([N+](=O)[O-])cc1)NC(=O)CCNC(=O)C[C@H](CO)NC(=O)[C@H](Cc1ccc([N+](=O)[O-])cc1)NC(=O)[C@H](COP(=O)(O)O)NC(=O)C(Cc1cscn1)NC(=O)[C@@H](N)Cc1ccc([N+](=O)[O-])cc1)C(=O)N[C@@H](CCCCNC(=S)Nc1ccc2c(c1)C(=O)OC21c2ccc(O)cc2Oc2cc(O)ccc21)C(N)=O (stereo partly drawn) [2b] (H-[Phe(4-NO2)][ξAla(4-thiazolyl)][pS][Phe(4-NO2)][β3hS][βAla][Phe(4-NO2)]KAK(FITC)-NH2) , tested with 14-3-3γ (Homo sapiens, UniProt P61981).
Ans: 0,76 kcal/mol

* * *

- Study system: 14-3-3γ (Homo sapiens)
- Construct: made in house; host or cells: E. coli NiCo21 (DE3)
- Measurement description: Isothermal titration calorimetry (ITC) of 14-3-3 binding to peptide
- Applied conditions: Table S5; ITC, 25 °C; replicate 2
Where a SMILES comes first, the peptide text is derived from it. [ ]: non-standard residue; d: D form. ξ: configuration not given here. Phe(4-NO2) = N[C@@H](Cc1ccc([N+](=O)[O-])cc1)C(=O)O; ξAla(4-thiazolyl) = NC(Cc1cscn1)C(=O)O; pS = N[C@@H](COP(=O)(O)O)C(=O)O; β3hS = N[C@@H](CO)CC(=O)O; Nva = CCC[C@H](N)C(=O)O; βAla = NCCC(=O)O
Experimental endpoint: ΔG (kcal/mol)
Field format: number, assumed kcal/mol, no unit text.

Q: Find the recorded ΔG belonging to CCC[C@H](NC(=O)[C@H](N)CCCCN)C(=O)N[C@@H](Cc1ccc([N+](=O)[O-])cc1)C(=O)NC(Cc1cscn1)C(=O)N[C@@H](COP(=O)(O)O)C(=O)N[C@@H](Cc1ccc(O)cc1)C(=O)N[C@@H](CO)CC(=O)NCCC(=O)N[C@@H](Cc1ccc([N+](=O)[O-])cc1)C(=O)N[C@@H](CCCCN)C(N)=O (stereo partly drawn) [4a] (H-[dK][Nva][Phe(4-NO2)][ξAla(4-thiazolyl)][pS]Y[β3hS][βAla][Phe(4-NO2)]K-NH2; N-terminus and C-terminus assumed) and report it.
Ans: -9.8

* * *

Reported ΔG values follow for various molecules
- Study system: 14-3-3γ (Homo sapiens, UniProt P61981)
- Construct: made in house; host or cells: E. coli NiCo21 (DE3)
- Measurement description: Fluorescence anisotropy (FA) binary binding study: 14-3-3 titrated to fluorescein-labelled peptide
- Applied conditions: Table S4; calculated from FA Kd; mean of n = 3
Where a SMILES comes first, the peptide text is derived from it. [ ]: non-standard residue; d: D form. ξ: configuration not given here. Phe(4-NO2) = N[C@@H](Cc1ccc([N+](=O)[O-])cc1)C(=O)O; ξAla(4-thiazolyl) = NC(Cc1cscn1)C(=O)O; pS = N[C@@H](COP(=O)(O)O)C(=O)O; β3hS = N[C@@H](CO)CC(=O)O; Nva = CCC[C@H](N)C(=O)O; βAla = NCCC(=O)O
Field format: number, assumed kcal/mol, no unit text.

Q: Find the recorded ΔG belonging to CCC[C@H](NC(=O)[C@H](N)CCCCN)C(=O)N[C@@H](Cc1ccc([N+](=O)[O-])cc1)C(=O)NC(Cc1cscn1)C(=O)N[C@@H](COP(=O)(O)O)C(=O)N[C@@H](Cc1ccc(O)cc1)C(=O)N[C@@H](CO)CC(=O)NCCC(=O)N[C@@H](Cc1ccc([N+](=O)[O-])cc1)C(=O)N[C@@H](CCCCN)C(N)=O (stereo partly drawn) [4a] (H-[dK][Nva][Phe(4-NO2)][ξAla(4-thiazolyl)][pS]Y[β3hS][βAla][Phe(4-NO2)]K-NH2; N-terminus and C-terminus assumed) and report it.
Ans: -10.0

Q: Find the recorded ΔG belonging to CCC[C@H](NC(=O)[C@H](N)CCCCN)C(=O)N[C@@H](Cc1ccc([N+](=O)[O-])cc1)C(=O)NC(Cc1cscn1)C(=O)N[C@@H](COP(=O)(O)O)C(=O)N[C@@H](Cc1ccc([N+](=O)[O-])cc1)C(=O)N[C@@H](CO)CC(=O)NCCC(=O)N[C@@H](C)C(=O)N[C@@H](CCCCN)C(N)=O (stereo partly drawn) [5c] (H-[dK][Nva][Phe(4-NO2)][ξAla(4-thiazolyl)][pS][Phe(4-NO2)][β3hS][βAla]AK-NH2; N-terminus and C-terminus assumed) and report it.
Ans: -7.6

* * *

- Study system: 14-3-3γ (Homo sapiens)
- Construct: made in house; host or cells: E. coli NiCo21 (DE3)
- Sequence (P61981 1-247): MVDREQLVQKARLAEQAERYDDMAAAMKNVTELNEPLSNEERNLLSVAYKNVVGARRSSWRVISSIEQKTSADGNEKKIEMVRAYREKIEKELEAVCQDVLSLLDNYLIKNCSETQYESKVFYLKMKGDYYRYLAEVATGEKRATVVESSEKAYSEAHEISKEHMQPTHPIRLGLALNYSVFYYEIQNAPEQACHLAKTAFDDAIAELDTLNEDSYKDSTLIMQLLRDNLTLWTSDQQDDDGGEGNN
- Measurement description: Isothermal titration calorimetry (ITC) of 14-3-3 binding to peptide
- Applied conditions: Table S6; ITC, 25 °C; run 1
Where a SMILES comes first, the peptide text is derived from it. [ ]: non-standard residue; d: D form. ξ: configuration not given here. Phe(4-NO2) = N[C@@H](Cc1ccc([N+](=O)[O-])cc1)C(=O)O; ξAla(4-thiazolyl) = NC(Cc1cscn1)C(=O)O; pS = N[C@@H](COP(=O)(O)O)C(=O)O; β3hS = N[C@@H](CO)CC(=O)O; Nva = CCC[C@H](N)C(=O)O; βAla = NCCC(=O)O
Experimental endpoint: ΔH

1. CCC[C@H](NC(=O)[C@H](N)CCCCN)C(=O)N[C@@H](Cc1ccc([N+](=O)[O-])cc1)C(=O)NC(Cc1cscn1)C(=O)N[C@@H](COP(=O)(O)O)C(=O)N[C@@H](Cc1ccc([N+](=O)[O-])cc1)C(=O)N[C@@H](CO)CC(=O)NCCC(=O)N[C@@H](C)C(=O)N[C@@H](CCCCN)C(N)=O (stereo partly drawn) [5c] (H-[dK][Nva][Phe(4-NO2)][ξAla(4-thiazolyl)][pS][Phe(4-NO2)][β3hS][βAla]AK-NH2; N-terminus and C-terminus assumed) :: -2,242 kcal mol^-1

Now turn to the next molecule.
Q: Find the recorded ΔH belonging to CCC[C@H](NC(=O)[C@H](N)CCCCN)C(=O)N[C@@H](Cc1ccc([N+](=O)[O-])cc1)C(=O)N[C@@H](C)C(=O)N[C@@H](COP(=O)(O)O)C(=O)N[C@@H](Cc1ccc([N+](=O)[O-])cc1)C(=O)N[C@@H](CO)CC(=O)NCCC(=O)N[C@@H](Cc1ccc([N+](=O)[O-])cc1)C(=O)N[C@@H](CCCCN)C(N)=O [3a] (H-[dK][Nva][Phe(4-NO2)]A[pS][Phe(4-NO2)][β3hS][βAla][Phe(4-NO2)]K-NH2; N-terminus and C-terminus assumed) and report it.
Ans: -7,998 kcal mol^-1
